# Test system: KM12
# test_method_notes: NCI tumour cell line growth inhibition, 48 h
Active and inactive are the calls of the source. No stated cut-off is given here; in the data, active = GI50 up to about 1.1 µM and inactive = higher.
GI50 by entry:

See these solved cases before continuing.
molecule: Nc1ccc(-c2ccc(Nc3cc(S(=O)(=O)O)c(N)c4c3C(=O)c3ccccc3C4=O)cc2)c(S(=O)(=O)O)c1
GI50: > 100 µM (inactive)
//
molecule: C=CCN1C(=O)/C(=C/c2ccccc2)N=C1SC/C=C/C
GI50: 37.4 µM (inactive)
//
molecule: CC1CC(NN(C)C)C2(C(N)=O)C(N)=NC(=O)C12C#N (stereo not given)
GI50: > 100 µM (inactive)
//
molecule: O=[As]O
GI50: > 100 µM (inactive)

Next molecule, please.
Measured GI50, COc1ccc(C2C(C#N)=C(S)N(C3OC(COC(C)=O)C(OC(C)=O)C(OC(C)=O)C3OC(C)=O)C(C)=C2C(C)=O)cc1 (stereo not given) : > 100 µM (inactive)

====

# System: M19-MEL
# test_method_notes: NCI tumour cell line growth inhibition, 48 h
Activity calls are given as the source filed them. Cut-off read from the data, not from the text of the source: active = GI50 up to about 1.1 µM and inactive = higher.
property_measured: GI50

molecule: CCN(CC)CCCCC1CCN(CC(=O)N2c3ccccc3NC(=O)CC2C)CC1 (centres undefined)
GI50: > 100 µM (inactive)

Measured GI50, Cc1nc(C)c(C(=O)Nc2cccc3c2C(=O)NC3=O)cc1C(=O)Nc1cccc2c1C(=O)NC2=O : > 100 µM (inactive)

Measured GI50, Cc1cc(C)c2[s+]snc2c1 : > 100 µM (inactive)

Measured GI50, CCCCCN(CCCCC)C(=O)[C@H](CCC(=O)O)NC(=O)c1cc2ccccc2[nH]1 : 45.5 µM (inactive)

Measured GI50, O=[As]O : 20.5 µM (inactive)

====

GI50 by entry:
# System: A498
# test_method_notes: NCI tumour cell line growth inhibition, 48 h
The source made the active and inactive calls. Rule as the data show it: active = GI50 up to about 1.1 µM and inactive = higher.

See these solved cases before continuing.
compound: C1COCCSC2=C(SCCO1)SC(=C1SC3=C(SCCOCCOCCS3)S1)S2
property_measured: GI50
experimental_result: > 100 µM (inactive)
//
compound: COc1ccc(NC(=O)C2=C(SC)C(C#N)C(=O)N=C2N)cc1 (stereo unspecified)
property_measured: GI50
experimental_result: > 100 µM (inactive)
//
compound: O=[As]O
property_measured: GI50
experimental_result: > 74.6 µM (inactive)
//
compound: O=C(CC(C(=O)c1ccsc1)c1cccs1)c1ccsc1 (stereo unspecified)
property_measured: GI50
experimental_result: 81.8 µM (inactive)

Measured GI50, COC(=O)c1cccc(C(=O)OC)c1 : > 100 µM (inactive)

Measured GI50, COc1ccccc1NC(=O)C1=C(C)NC(C)=C(C(=O)Nc2ccccc2OC)C1c1ccco1 : 4.3 µM (inactive)

====

# Tested on: OVCAR-4
# test_method_notes: NCI tumour cell line growth inhibition, 48 h
Active and inactive are the calls of the source. Rule as the data show it: active = GI50 up to about 1.1 µM and inactive = higher.
property_measured: GI50

compound: Cc1nc2cccc([N+](=O)[O-])c2c(NCCCN(C)C)c1C
GI50: 17.3 µM (inactive)

Measured GI50, N#CCC(=O)Nc1ccccc1O : > 100 µM (inactive)

Measured GI50, COc1ccc(NC(=O)CC(=O)N2N=C(N3CCCCC3)CC2c2ccccc2)cc1 (stereo unspecified) : > 100 µM (inactive)

Measured GI50, O=C1CN(c2ccccc2)C(=O)C1C(=O)Nc1ccc(Cl)c(Cl)c1 (stereo unspecified) : 11.7 µM (inactive)

Measured GI50, O=C(Nc1c(O)[nH]c(=S)[nH]c1=O)c1ccccc1F : > 100 µM (inactive)

Measured GI50, COc1nc(N)nc2nc[nH]c12 : 479 µM (inactive)
